system: Lymphocytic leukemia P-388; assay: In vivo antitumor activity, murine lymphocytic leukemia P-388; conditions: BDF1-SLC mice, i.p. transplant, once daily for 9 days, 30 days observation; T/C more than 130 effective
READOUT: Max. T/C on Mouse Lymphocytic Leukemia P 388 (%)
Numbers only, in %.

Illustrative cases are given below, each with its answer.
Cc1c(N)nc(C(CC(N)=O)NCC(N)C(N)=O)nc1C(=O)NC(C(=O)NC(C)C(O)C(C)C(=O)NC(C(=O)NCCc1nc(-c2nc(C(=O)NCCCN(C)CCCNCc3ccc(OCc4ccccc4)c(OCc4ccccc4)c3)cs2)cs1)C(C)O)C(OC1OC(CO)C(O)C(O)C1OC1OC(CO)C(O)C(OC(N)=O)C1O)c1cnc[nH]1 (stereo not drawn) [compound 15] = 165
Cc1c(N)nc(C(CC(N)=O)NCC(N)C(N)=O)nc1C(=O)NC(C(=O)NC(C)C(O)C(C)C(=O)NC(C(=O)NCCc1nc(-c2nc(C(=O)NCCC[N+](C)(CCCN(Cc3ccccc3)Cc3ccccc3)Cc3ccccc3)cs2)cs1)C(C)O)C(OC1OC(CO)C(O)C(O)C1OC1OC(CO)C(O)C(OC(N)=O)C1O)c1cnc[nH]1 (stereo not drawn) [compound 39] = 163

Could you now consider this next molecule?
Exercise: Given Cc1c(N)nc(C(CC(N)=O)NCC(N)C(N)=O)nc1C(=O)NC(C(=O)NC(C)C(O)C(C)C(=O)NC(C(=O)NCCc1nc(-c2nc(C(=O)NCCCN(C)CCCN(Cc3ccccc3)Cc3ccccc3)cs2)cs1)C(C)O)C(OC1OC(CO)C(O)C(O)C1OC1OC(CO)C(O)C(OC(N)=O)C1O)c1cnc[nH]1 (stereo not drawn) [compound 27] , state its recorded Max. T/C on Mouse Lymphocytic Leukemia P 388.
Solution: 149

---

Exercise: for every item that follows, state its recorded Max. T/C on Mouse Lymphocytic Leukemia P 388.
test system: Lymphocytic leukemia P-388; experiment: In vivo antitumor activity, murine lymphocytic leukemia P-388; conditions: BDF1-SLC mice, i.p. transplant, once daily for 9 days, 30 days observation; T/C more than 130 effective
Answers are plain numbers, in %.

Please review the following examples before continuing.
Cc1c(N)nc(C(CC(N)=O)NCC(N)C(N)=O)nc1C(=O)NC(C(=O)NC(C)C(O)C(C)C(=O)NC(C(=O)NCCc1nc(-c2nc(C(=O)NCCCN(CCCN(Cc3ccccc3)Cc3ccccc3)Cc3ccccc3)cs2)cs1)C(C)O)C(OC1OC(CO)C(O)C(O)C1OC1OC(CO)C(O)C(OC(N)=O)C1O)c1cnc[nH]1 (stereo not drawn) = 154
Cc1c(N)nc(C(CC(N)=O)NCC(N)C(N)=O)nc1C(=O)NC(C(=O)NC(C)C(O)C(C)C(=O)NC(C(=O)NCCc1nc(-c2nc(C(=O)NCCCN3CCN(CCCNCC4CCCCCCC4)CC3)cs2)cs1)C(C)O)C(OC1OC(CO)C(O)C(O)C1OC1OC(CO)C(O)C(OC(N)=O)C1O)c1cnc[nH]1 (stereo not drawn) = 163

Continue with the compound presented below.
Exercise: Could you share which Max. T/C on Mouse Lymphocytic Leukemia P 388 value was measured for Cc1c(N)nc(C(CC(N)=O)NCC(N)C(N)=O)nc1C(=O)NC(C(=O)NC(C)C(O)C(C)C(=O)NC(C(=O)NCCc1nc(-c2nc(C(=O)NCCC[N+](C)(C)CCC[N+](C)(C)CCCN(Cc3ccccc3)Cc3ccccc3)cs2)cs1)C(C)O)C(OC1OC(CO)C(O)C(O)C1OC1OC(CO)C(O)C(OC(N)=O)C1O)c1cnc[nH]1 (stereo not drawn) ?
Solution: 184
